tested on: Canis familiaris; experiment: Myocardial contractile force (CF) in dog after intravenous dose of 1.875 mg/kg; assay type: functional, Canis lupus familiaris, Myocardium
ENDPOINT_NAME: Activity
Answers are plain numbers.

Example entries begin here.
CS(=O)(=O)N1CCOc2ccc(C3=NN(c4ccccc4)C(=O)CC3)cc21; 30
Cc1cc2c(c(C3=NNC(=O)CC3)c1)OCC(=O)N2; 32

Lab note: next molecule to report on.
Activity in this record for `CCCCCN1N=C(c2ccc3c(c2)N(S(C)(=O)=O)CCO3)CCC1=O` : 22

###

system: Canis familiaris; experiment: Myocardial contractile force (CF) in dog after intravenous dose of 1.875 mg/kg; type: functional, Canis lupus familiaris, Myocardium
Response field label: string, one of yes (1) (Activity strictly below 80) or no (0).

CS(=O)(=O)N1CCOc2ccc(C3=NNC(=O)CC3)cc21; yes (1)
Cc1cc(C2=NNC(=O)CC2C)c2c(c1)N(C)C(=O)CO2 (stereo unspecified); no (0)
CC1(C)Oc2ccc(C3=NNC(=O)CC3)cc2NC1=O; no (0)
CN1N=C(c2ccc3c(c2)N(S(C)(=O)=O)CCO3)CCC1=O; yes (1)
CC1CC(=O)NN=C1c1ccc2c(c1)N(C1CCCC1)C(=O)C(C)O2 (stereo unspecified); yes (1)

Problem: Say whether its Activity is strictly beneath 80. Entry: `O=C1CCC(c2ccc3c(c2)NCCO3)=NN1`
Result: no (0)

Problem: Decide: Activity of CC1CC(=O)NN=C1c1ccc2c(c1)N(C(C)C)C(=O)C(C)O2 (stereo unspecified) strictly below 80?
Result: no (0)

Problem: Record Cc1cc2c(c(C3=NNC(=O)CC3C)c1)OCC(=O)N2 (stereo unspecified) : is its Activity strictly below 80?
Result: yes (1)

Problem: Check if Activity falls below 80 for `CN1C(=O)C(C)(C)Oc2ccc(C3=NNC(=O)CC3)cc21` .
Result: no (0)

Problem: Given the entry `CC(=O)N1CCOc2ccc(C3=NNC(=O)CC3)cc21` , would its reported Activity be below 80?
Result: no (0)

Problem: Find out if reported Activity for `C=CCN1N=C(c2ccc3c(c2)N(S(C)(=O)=O)CCO3)CCC1=O` is less than 80
Result: yes (1)
